Target: human calcitonin-2 receptor (hCT2R) (Homo sapiens)
Construct: receptor cDNA cloned from the MCF7 cell line
Sequence (P30988 25-474): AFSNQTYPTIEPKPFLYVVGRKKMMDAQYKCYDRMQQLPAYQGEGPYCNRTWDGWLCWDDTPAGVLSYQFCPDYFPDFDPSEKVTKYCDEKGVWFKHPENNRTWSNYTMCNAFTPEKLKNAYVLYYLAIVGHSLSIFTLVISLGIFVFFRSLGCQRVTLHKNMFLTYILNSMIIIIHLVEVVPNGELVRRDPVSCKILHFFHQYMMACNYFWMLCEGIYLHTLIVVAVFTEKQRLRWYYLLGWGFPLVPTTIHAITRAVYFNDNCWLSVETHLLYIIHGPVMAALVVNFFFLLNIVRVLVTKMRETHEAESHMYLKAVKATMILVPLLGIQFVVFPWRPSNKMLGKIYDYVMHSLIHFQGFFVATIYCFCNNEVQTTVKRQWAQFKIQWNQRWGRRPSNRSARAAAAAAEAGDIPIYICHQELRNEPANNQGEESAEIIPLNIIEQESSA
Experiment: HCT2R CRE-luc reporter assay
Conditions: agonist activity; CHO-6CRE-luciferase cells co-transfected with hCT2R
pEC50: −log10 of the molar value.
measured parameter: pEC50

CCOC(=O)c1c(CCc2ccc(C(F)(F)F)cc2)nc2c(c1-c1ccc(C(=O)NCc3cccnc3)o1)C(=O)N1CCC[C@@H]21 : 7.00 to 8.00
CCOC(=O)c1c(Cc2ccc(F)cc2)nc2c(c1-c1ccc(C(=O)NN3CCc4ccccc43)cc1)C(=O)N1CCC[C@@H]21 : 7.00 to 8.00
CCOC(=O)c1c(CCc2ccc(F)cc2)nc2c(c1-c1cc(Br)cs1)C(=O)N1CCC[C@@H]21 : 6.00 to 7.00
CCC(=O)Nc1c(CCc2ccc(C(F)(F)F)cc2)nc2c(c1-c1ccc(C(=O)NCc3ccco3)cc1)C(=O)N1CCC[C@@H]21 : 6.00 to 7.00
CCOC(=O)c1c(CCc2ccc(C(F)(F)F)cc2)nc2c(c1-c1ccc(CC(=O)NCc3ccco3)cc1)C(=O)N1CCC[C@@H]21 : 6.00 to 7.00
CCOC(=O)c1c(CCc2ccc(F)cc2)nc2c(c1-c1ccc(C(=O)N[C@@H](C)c3ccncc3)c(F)c1)C(=O)N1CCC[C@@H]21 : 7.00 to 8.00

Exercise: Form field: reported pEC50 of "O=C(N[C@@H]1CCc2ccccc21)c1ccc(-c2cc(Cc3ccc(F)cc3)nc3c2C(=O)N2CCC[C@@H]32)cc1"
Solution: 7.00 to 8.00

Exercise: Form field: reported pEC50 of "CCOC(=O)c1c(CCC(F)(F)F)nc2c(c1-c1ccc(C(=O)N[C@@H]3CCc4ccccc43)cc1)C(=O)N1CCC[C@@H]21"
Solution: 7.00 to 8.00

Exercise: Form field: reported pEC50 of "CCOC(=O)c1c(Cc2ccc(F)cc2F)nc2c(c1-c1ccc(C(=O)NCc3ccco3)cc1)C(=O)N1CCC[C@@H]21"
Solution: 7.00 to 8.00

Exercise: Form field: reported pEC50 of "O=C(NCc1ccco1)c1ccc(-c2c(NC(=O)C(F)(F)F)c(CCc3ccc(C(F)(F)F)cc3)nc3c2C(=O)N2CCC[C@@H]32)cc1"
Solution: 6.00 to 7.00

Exercise: Form field: reported pEC50 of CCOC(=O)c1c(CCc2ccc(F)cc2)nc2c(c1-c1cc(C(=O)NC3CCc4ccccc43)co1)C(=O)N1CCC[C@@H]21 (stereo partly shown)
Solution: ≥ 8.00

Exercise: Form field: reported pEC50 of O=C(NC1CCc2ccccc21)c1ccc(-c2c(NC(=O)C(F)(F)F)c(Cc3ccc(F)cc3F)nc3c2C(=O)N2CCCC32)cc1 (stereo not shown)
Solution: 7.00 to 8.00

Exercise: Form field: reported pEC50 of "CCOC(=O)c1c(Cc2ccc(F)cc2F)nc2c(c1-c1ccc(C(=O)NN3CCc4ccccc43)cc1)C(=O)N1CCC[C@@H]21"
Solution: 7.00 to 8.00
